Attribution: patent US9056847B2

MEASURED TARGET: GBA (Homo sapiens (Human), UniProt P04062, R534H)
Sequence (P04062 40-536 R534H): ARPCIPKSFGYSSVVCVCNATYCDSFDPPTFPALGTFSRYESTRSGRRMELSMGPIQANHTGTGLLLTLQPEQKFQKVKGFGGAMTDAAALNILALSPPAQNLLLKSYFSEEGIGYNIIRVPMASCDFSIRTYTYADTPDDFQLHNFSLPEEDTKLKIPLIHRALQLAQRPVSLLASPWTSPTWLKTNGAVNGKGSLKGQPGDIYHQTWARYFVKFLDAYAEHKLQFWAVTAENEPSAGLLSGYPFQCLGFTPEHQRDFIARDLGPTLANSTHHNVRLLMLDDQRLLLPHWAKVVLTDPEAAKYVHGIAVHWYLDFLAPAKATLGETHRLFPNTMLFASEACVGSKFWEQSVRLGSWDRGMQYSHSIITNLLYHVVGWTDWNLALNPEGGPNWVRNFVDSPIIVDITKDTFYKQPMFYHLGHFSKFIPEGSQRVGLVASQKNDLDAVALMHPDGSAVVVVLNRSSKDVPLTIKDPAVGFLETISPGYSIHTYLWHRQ
EXPERIMENT SUMMARY: GBA enzyme activity assay with 4-methylumbelliferyl β-D-glucopyranoside, inhibitor preincubated 30 min (apparent IC50)
Assay type: biochemical
TEST CONDITIONS: recombinant GBA; read-out: apparent half-maximal inhibitory concentration (IC50)
Give IC50 for every item shown.
Numbers only, in nM.

COc1ccc(C2=[N+]3C(=C(CCCCc4cn(C[C@@H]5[C@@H](O)[C@H](O)[C@@H](O)[C@@H]6O[C@H]56)nn4)c4ccc(-c5ccc(OC)cc5)n4[B-]3(F)F)C=C2)cc1	1.94

Find the recorded IC50 belonging to "CC1=CC(C)=[N+]2C1=C(CCCCc1cn(C[C@@H]3[C@@H](O)[C@H](O)[C@@H](O)[C@@H]4O[C@H]34)nn1)c1c(C)cc(C)n1[B-]2(F)F" and report it.
1.24
